# experimental_protocol: solvent given as SMILES
# condition_details: in ClCCl
We begin with a simple list: items and their reported fluorescence lifetime.

{"columns": ["smiles_structure", "fluorescence lifetime / ns"],
 "data": [
  ["CC1=C(I)C(C)=[N+]2C1=C(c1c(-c3ccccn3)nc3ccccn13)c1c(C)c(I)c(C)n1[B-]2(F)F", 0.4],
  ["N#Cc1ccc2c(c1)CCc1nc(-c3ccc([N+](=O)[O-])cc3)c3c(c1-2)CCc1cc(C#N)ccc1-3", 1.46],
  ["c1ccc(Cn2c3sccc3c3c4nsnc4c4c5ccsc5n(Cc5ccccc5)c4c32)cc1", 16.2],
  ["CCCCCCCCCCCCCCCCOc1cc(C#Cc2ccc3ccccc3c2-c2c(C#Cc3cc(OCCCCCCCCCCCCCCCC)c(C#Cc4ccc(C=C(C#N)C#N)cc4)cc3OCCCCCCCCCCCCCCCC)ccc3ccccc23)c(OCCCCCCCCCCCCCCCC)cc1C#Cc1ccc(C=C(C#N)C#N)cc1", 0.79],
  ["CC(=O)O[B-]1(OC(C)=O)OC(/C=C/C=C/c2ccccc2)=CC(/C=C/C=C/c2ccccc2)=[O+]1", 1.84]
]}

###

# experimental_protocol: solvent given as SMILES
# condition_details: in ClCCl

{"columns": ["smiles_structure", "fluorescence lifetime, ns"],
 "data": [
  ["F[B-]1(F)n2c(cc3c4ccccc4c4ccccc4c32)-c2ccc3ccccc3[n+]21", 4.89],
  ["ClP1(Cl)=N[P@@](Cl)(Oc2ccc3ccc4cccc5ccc2c3c45)=N[P@@](Cl)(Oc2ccc3ccc4cccc5ccc2c3c45)=N1", 2.02],
  ["CCCCCCOc1ccc(C#Cc2ccc(C#CC#Cc3ccc(C#Cc4ccc(OCCCCCC)c(OCCCCCC)c4)c4nsnc34)c3nsnc23)cc1OCCCCCC", 2.5],
  ["COc1cc(/C=C/c2nc(N3CCOCC3)c3c([n+]2[O-])CCCC3)cc(OC)c1OC", 8.5],
  ["F[B-]1(F)n2c(c3ccccc3c2-c2ccccc2)C(c2ccccc2)=C2c3ccccc3C(c3ccccc3)=[N+]21", 5.2],
  ["COc1ccc(C2=CC(c3cc(OC)cc(OC)c3)=[O+][B-](F)(F)O2)cc1", 7.4],
  ["CCCCN1C(=O)c2cc(Oc3ccc(C(C)(C)C)cc3)c3c4c(Oc5ccc(C(C)(C)C)cc5)cc5c(=O)n6c(c7cc(Oc8ccc(C(C)(C)C)cc8)c(c8c(Oc9ccc(C(C)(C)C)cc9)cc(c2c38)C1=O)c4c57)=Cc1cccc[n+]1[B-]6(F)F", 4.51],
  ["ClP1(Cl)=N[P@](Cl)(Oc2ccc3ccc4cccc5ccc2c3c45)=N[P@@](Cl)(Oc2ccc3ccc4cccc5ccc2c3c45)=N1", 3.02],
  ["CC(C)(C)c1ccc(-n2c(-c3ccc(N(c4ccc(-c5ccc(N(c6ccc(-c7nc8c9ccccc9c9ccccc9c8n7-c7ccc(C(C)(C)C)cc7)cc6)c6ccc(-c7nc8c9ccccc9c9ccccc9c8n7-c7ccc(C(C)(C)C)cc7)cc6)cc5)cc4)c4ccc(-c5nc6c7ccccc7c7ccccc7c6n5-c5ccc(C(C)(C)C)cc5)cc4)cc3)nc3c4ccccc4c4ccccc4c32)cc1", 3.8],
  ["N#Cc1ccc(-n2c(-c3ccc(-c4ccc(-c5nc6c7ccccc7c7ccccc7c6n5-c5ccc(C#N)c6ccccc56)cc4)cc3)nc3c4ccccc4c4ccccc4c32)c2ccccc12", 1.92],
  ["CC1=C2C=CC(C)=[N+]2[B-](F)(F)n2cccc21", 6.23],
  ["CC1=C(c2ccc(N(c3ccccc3)c3ccccc3)cc2)C(C)=[N+]2C1=C(c1c(-c3ccccn3)nc3ccccn13)c1c(C)cc(C)n1[B-]2(F)F", 0.2],
  ["COc1ccc(-c2cc3c(s2)c(-c2ccccc2)cc(=O)n3C)cc1", 4.69]
]}

###

# experimental_protocol: solvent given as SMILES
# condition_details: in C1COCCO1

{"columns": ["molecule", "fluorescence lifetime / ns"],
 "data": [
  ["COC(=O)C(Cc1ccc2oc(-c3ccc4c(c3)c3ccccc3n4-c3ccccc3)nc2c1)NC(=O)OC(C)(C)C (stereo not given)", 1.96],
  ["N#C[Se]CCCCCOc1ccc2ccc(=O)oc2c1", 0.17],
  ["CN(C)c1ccc(C#Cc2ccccc2)cc1", 0.71],
  ["COc1ccc(C#Cc2ccc(C#N)cc2)cc1", 0.33],
  ["N#Cc1ccc2[nH]ccc2c1", 4.2],
  ["c1ccc(-c2ccc(-c3ccc(-c4cc(-c5ccc(-c6ccc(-c7ccccc7)cc6)cc5)cc(-c5ccc(-c6ccc(-c7ccccc7)cc6)cc5)c4)cc3)cc2)cc1", 1.05],
  ["CCC12C(=C3C(=C4c5ccccc5S(=O)(=O)C41CC)C(F)(F)C(F)(F)C3(F)F)c1ccccc1S2(=O)=O (stereo not given)", 1.2],
  ["O=C1CCCc2c1[nH]c1cc3c(cc21)OCO3", 0.481],
  ["O=[N+]([O-])c1ccc(F)cc1C1CC(c2cccc3ccccc23)=NN1c1ccccc1 (stereo not given)", 3.77],
  ["COc1cc(/C=C2/SC(=O)NC2=O)cc(OC)c1O", 1.44]
]}

###

We begin with a simple list: items and their reported fluorescence lifetime.
# experimental_protocol: solvent given as SMILES
# condition_details: in CC#N
property_label: fluorescence lifetime (ns)

{"columns": ["compound", "value_reported"],
 "data": [
  ["COc1ccc2c3c([nH]c2c1)C(C)=NCC3", 5.29],
  ["c1ccc(-c2nn(-c3ccccc3)c3nc4ccc(N(c5ccccc5)c5cccc6ccccc56)cc4cc23)cc1", 16.3],
  ["COc1c2ccccc2c(OC)c2c1c1ccc(C)cc1n2C", 25.8],
  ["NS(=O)(=O)c1ccc(N2N=C(c3ccc(O)cc3)CC2c2ccc(Br)cc2)cc1 (stereo unspecified)", 2.2],
  ["O=C1c2ccccc2C2=C(c3ccccn3)NN=C(c3ccccn3)C2c2ccccc21 (stereo unspecified)", 12.8],
  ["COC(=O)C(Cc1ccc2oc(-c3ccc4c(c3)c3ccccc3n4-c3ccccc3)nc2c1)NC(=O)OC(C)(C)C (stereo unspecified)", 1.77],
  ["COc1ccc(-c2csc(/C(C#N)=C/c3ccc(C#N)cc3)n2)cc1", 1.43],
  ["C(=C\\c1nc(/C=C/c2ccc(-n3c4ccccc4c4ccccc43)cc2)nc(/C=C/c2ccc(-n3c4ccccc4c4ccccc43)cc2)n1)/c1ccc(-n2c3ccccc3c3ccccc32)cc1", 2.03],
  ["CCCCCCCCCCOc1cc2cc(C#Cc3ccc(/C=C(\\C#N)C(=O)O)cc3)c(=O)oc2cc1OCCCCCCCCCC", 1.1],
  ["N#Cc1ccc2cc[nH]c2c1", 3.8],
  ["Nc1ccccn1", 5],
  ["c1ccc2nc3cccc(-c4ccc(-n5c6ccccc6c6ccccc65)cc4)c3cc2c1", 10.6],
  ["CN(C)c1ccc2nc(/C=C/c3ccccc3)c(=O)oc2c1", 3.95],
  ["Cc1cc2nc3c(=O)n(C)c(=O)n(C)c3nc2cc1C", 0.64],
  ["O=C(O)c1ccc(-c2nc(-c3ccccc3)c3c4ccccc4ccn23)cc1", 2.5],
  ["COc1ccc2nc(N)sc2c1", 4.4],
  ["CC1=N/C(=C\\c2cccc(N(C)C)c2)C(=O)N1C", 8.6],
  ["Cc1cc(C)c2nc3c(=O)n(C)c(=O)nc-3n(C)c2c1", 3.9],
  ["COC(=O)C(NC(=O)OC(C)(C)C)c1ccc2oc(-c3cc(OC)c(OC)c(OC)c3)nc2c1 (stereo unspecified)", 1.2],
  ["CC(=O)OC[C@@H]1O[C@H](N2C=CC3=Nc4nc(C)[n+](C)cc4CN3C2=O)[C@@H](O)[C@H]1O", 3.92],
  ["C/C=C/c1ccc(OC)c(OC)c1", 4]
]}

###

# experimental_protocol: solvent given as SMILES
# condition_details: in C1COCCO1
property_label: log10 of fluorescence lifetime (log10 of the value in ns)

{"columns": ["compound", "log10 of fluorescence lifetime"],
 "data": [
  ["CC1=C(C(C)(C)C)C(C)=[N+]2C1=C(C)c1c(C)c(C(C)(C)C)c(C)n1[B-]2(F)F", 0.64],
  ["O=S(=O)(c1ccc(N2c3ccccc3Oc3ccccc32)cc1)c1ccc(N2c3ccccc3Oc3ccccc32)cc1", 1.28],
  ["CCC12C(=C3C(=C4c5ccc(-c6ccc(CO)cc6)cc5S(=O)(=O)C41CC)C(F)(F)C(F)(F)C3(F)F)c1ccc(-c3ccc(CO)cc3)cc1S2(=O)=O (stereo not drawn)", 0.46],
  ["c1ccc(Nc2nc(Nc3ccccc3)nc(Nc3ccc4cc5ccccc5cc4c3)n2)cc1", 1.12],
  ["COc1ccc(C2=C3C(C)=CC(C)=[N+]3[B-](F)(F)n3c(/C=C/c4ccc(N(C)C)cc4)cc(C)c32)cc1", 0.54],
  ["COC(=O)C(Cc1ccc2oc(-c3ccc(N(C)C)cc3)nc2c1)NC(=O)OC(C)(C)C (stereo not drawn)", 0.08],
  ["O=c1[nH]c(=O)n([C@@H]2O[C@H](CO)[C@@H](O)[C@H]2O)cc1-c1cc2ccccc2s1", -0.35],
  ["CCCCCCCCCCCCCCCCOc1cc(C#Cc2ccc3ccccc3c2-c2c(C#Cc3cc(OCCCCCCCCCCCCCCCC)c(C#Cc4ccc(C=C(C#N)C#N)cc4)cc3OCCCCCCCCCCCCCCCC)ccc3ccccc23)c(OCCCCCCCCCCCCCCCC)cc1C#Cc1ccc(C=C(C#N)C#N)cc1", 0.49]
]}
